- Experiment Notes: Permeability in Wistar rat jejunum at 100 uM at pH 6.4 by in-situ single-pass perfusion method
- Type: ADME, tissue-based
- Condition Label: other: in-situ single-pass perfusion of the jejunum, read-out: Peff (converted)
Outcome Measure: Papp at 100 µM (×10⁻⁶ cm/s)
Numeric answer only, unit ×10⁻⁶ cm/s assumed.

Query string: What value of Papp at 100 µM has been reported for the following molecule? CCOC(=O)[C@H](CCc1ccccc1)N[C@H]1CS[C@H](c2cccs2)CN(CC(=O)O)C1=O
Result string: 57.2

====

- Experiment Notes: Drug hydrolysis in Wistar rat duodenal S9 fraction
- Type: ADME, Duodenum
Outcome Measure: Km (µM)
The response must be a number in µM with no trailing unit.

Query string: Fill in the blank: the reported Km of CCOC(=O)[C@H](CCc1ccccc1)N[C@H]1CS[C@H](c2cccs2)CN(CC(=O)O)C1=O is ____.
Result string: 47.4

====

- Experiment Notes: Drug hydrolysis in Wistar rat duodenal S9 fraction assessed as rate of hydrolysis per mg protein
- Type: ADME, Duodenum
Outcome Measure: Vmax
Field: value (include unit after the number)

Query string: Item CCOC(=O)[C@H](CCc1ccccc1)N[C@H]1CS[C@H](c2cccs2)CN(CC(=O)O)C1=O has what recorded Vmax?
Result string: 5.2 nmol/min/mg

====

logD reference
- Experiment Notes: Partition coefficient, log P between n-octanol and phosphate buffer at pH 7.4
- Assay type: physicochemical
The answer should be a number; do not append a unit.

{"Smiles Record": "O=C(O)CN1C[C@@H](c2cccs2)SC[C@H](N[C@@H](CCc2ccccc2)C(=O)O)C1=O", "Outcome Measure": "logD", "Observed Result": 2.5}

Query string: Need logD of CCOC(=O)[C@H](CCc1ccccc1)N[C@H]1CS[C@H](c2cccs2)CN(CC(=O)O)C1=O , thanks.
Result string: 0.1

====

- Experiment Notes: Drug hydrolysis in Wistar rat jejunal S9 fraction assessed as rate of hydrolysis per mg protein
- Type: ADME, Jejunum
Outcome Measure: Vmax (nmol/min/mg)
Just the number in nmol/min/mg, nothing appended.

Query string: Please give the measured Vmax for this compound: CCOC(=O)[C@H](CCc1ccccc1)N[C@H]1CS[C@H](c2cccs2)CN(CC(=O)O)C1=O
Result string: 5.11
